B1: LCOR (parent)
chain: PCAGSTSLSHSPGCSSTQGNGRPG

- Variants of: B1
- Protocol Text: protein stability index of a GFP-peptide fusion (GPS, HEK-293T) (PSI 1-6); higher = more stable;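 note: lentivirally expressed fusions sorted by FACS into six bins by GFP to DsRed ratio, PSI derived from sequencing read proportions per bin multiplied by bin number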
- Run Conditions: c terminus: a fixed tail appended
Given measured protein stability index, output 1 if it is greater than or equal to 3 and -1 if not.

- Change: "A3V"
  Class Label: 1
- Change: "S11E"
  Class Label: 1
- Change: "G19Y"
  Class Label: -1
- Change: "G24K"
  Class Label: 1
- Change: "S7L"
  Class Label: -1
- Change: "S11K"
  Class Label: -1
- Change: "S16E"
  Class Label: 1
- Change: "S7K"
  Class Label: 1

Could you please find out whether P12K has protein stability index that meets 3 or exceeds it? 1

Cool, now N20A 1

Cool, now T6H 1
